# Test system: UACC-62 melanoma
# test: NCI-60 one-dose screen, 48 h
# assay conditions: 10 µM unless noted
# Procedure: Growth inhibition of the UACC-62 human tumor cell line is measured as a screen for anti-cancer activity. Cells are grown in 96 well plates and exposed to the test compound for 48 hours. Compounds are tested at a single concentration, which is 10^-5 M for most compounds. The reported endpoint is percent growth (GI% or GIPRCNT), where numbers from 0 - 100% represent growth inhibition, and numbers from -100% - 0 represent cell death. For example, a value of 40 represents 60% growth inhibition. […]
About 83,000 compounds went through this panel and 20% of them were active in at least one assay; those are over-represented in the sample as a whole. The source made the active and inactive calls. The calls were made as follows: active = growth percent below 10; inactive = the rest.
The reply should be one of these categories: T (active), F (inactive)

Before answering, review these 4 worked examples.
molecule: CCSc1nnc2c3cc(Br)ccc3n(C)c2n1
category: F
--
molecule: CC1SC(c2ccc(Cl)cc2)N(CCc2cccs2)C1=O (centres undefined)
category: T
--
molecule: Nc1nc2c(s1)CCc1c-2c(Br)n(Cc2ccccc2)c1Br
category: F
--
molecule: CCCCCCCC/C=C\CCCCCCCCOc1cccc(CC(=O)NCC[N+]2(C)CCCCC2)c1
category: F

Query: Per the records of this test, what outcome belongs to `COc1ccc(-c2nc3sccn3c2/C=C/C(=O)c2cc(OC)c(OC)c(OC)c2)cc1OC` ?
Response: F

Query: Per the records of this test, what outcome belongs to `c1ccc(-c2n(Cc3ccc4ccccc4n3)c3ccccc3[n+]2Cc2ccc3ccccc3n2)cc1` ?
Response: T

Query: Per the records of this test, what outcome belongs to `CCCCCCCCCCCCCCNc1nc(CO)ncc1-c1ccc(C(F)(F)F)cc1` ?
Response: F

Query: Per the records of this test, what outcome belongs to `CC1(C)N=C(N)N=C(N)N1c1cccc(OCCOc2cccc([N+](=O)[O-])c2)c1` ?
Response: F

Query: Per the records of this test, what outcome belongs to `Cc1nc2cc(Nc3nc(N4CCOCC4)nc(N4CCN(C)CC4)n3)ccc2n1Cc1ccccc1` ?
Response: F

Query: Per the records of this test, what outcome belongs to `Cn1c(=O)c(S(=O)(=O)c2ccccc2)cc2ccc3c(cnn3-c3ccc(Cl)cc3)c21` ?
Response: F

Query: Per the records of this test, what outcome belongs to `C[C@@H](Oc1cc(-c2cnn(C3CC4(CCNCC4)C3)c2)cnc1N)c1c(F)ccc(Cl)c1Cl` ?
Response: T

Query: Per the records of this test, what outcome belongs to `Cn1c2ccccc2c2nn(C(=O)c3ccccc3)c(=O)nc21` ?
Response: F

Query: Per the records of this test, what outcome belongs to `N#Cc1ccc(C(F)(F)F)nc1N1CCC(C(=O)Nc2ccc(Cl)cc2)CC1` ?
Response: F

Query: Per the records of this test, what outcome belongs to N#CC1=C(N)Oc2cc(N)ccc2C1c1ccc(F)cc1 (centres undefined) ?
Response: F

Query: Per the records of this test, what outcome belongs to `FCOC(C(F)(F)F)C(F)(F)F` ?
Response: F

Query: Per the records of this test, what outcome belongs to `Nc1nc(N)c(N=Nc2c(Br)cc(S(N)(=O)=O)cc2Br)c(N)n1` ?
Response: F

Query: Per the records of this test, what outcome belongs to `Cc1nn(-c2ccccc2)c2nc3nc4c(c(N)c3c(-c3ccc(Cl)cc3)c12)CCCC4` ?
Response: F

Query: Per the records of this test, what outcome belongs to `O=C1c2cc(S(=O)(=O)O)ccc2C(=O)c2c1cccc2[N+](=O)[O-]` ?
Response: F
